# target.system: T1, human-CD40 monomer (human, UniProt P25942 21-193, limits assumed)
# T1 construct: also called hCD40-monomer; human-CD40-monomer protein
# T1 sequence (P25942 21-193 limits assumed): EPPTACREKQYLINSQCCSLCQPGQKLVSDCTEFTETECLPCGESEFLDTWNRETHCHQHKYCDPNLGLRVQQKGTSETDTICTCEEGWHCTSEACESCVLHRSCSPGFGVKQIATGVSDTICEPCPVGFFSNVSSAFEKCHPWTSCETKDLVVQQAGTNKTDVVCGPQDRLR
# assay.text: SPR 2 pt screen, Ab on protein A
observed.property: kon (M⁻¹ s⁻¹)

binder	value.reported
humanized Y1238 hz24 (hz-HC5 / hz-LC4), IgG1.3f (antibody, V domains shown, IgG1.3f heavy constant, common CL; expression supernatant; also called Sup 24) VH: QVQLVQSGAEVKKPGASVKVSCKASGYAFTNYLIEWVRQRPGQGLEWMGVINPGSGGTNYNEKFKGRVTMTADKSISTAYMELSRLRSDDTAVYYCARSQLGRRFDYWGQGTLVTVSS VL: DIQMTQSPSSLSASVGDRVTITCKASQDVRTGVAWYQQKPGQSPKLLIYSASYRNTGVPSRFSGSRSGTDFTFTISSLQAEDIAVYYCQQHYSPPYTFGGGTKVEIK	43000
humanized Y1238 hz48 (hz-HC10 / hz-LC3), IgG1.3f (antibody, V domains shown, IgG1.3f heavy constant, common CL; expression supernatant; also called Sup 48) VH: QVQLVQSGAEVKKPGASVKVSCKASGYAFTNYLIEWVRQRPGQGLEWMGVINPGSGGTNYNEKFKGRVTMTRDKSISTAYMELSRLRSDDTAVYYCARSQLGRRFDYWGQGTLVTVSS VL: DIQMTQSPSSLSASVGDRVTITCKASQDVRTGVAWYQQKPGQSPKLLIYSASYRNTGVPSRFSGSRSGTDFTFTISSLQPEDIAVYYCQQHYSPPYTFGGGTKVEIK	39000
humanized Y1238 hz1 (hz-HC1 / hz-LC1), IgG1.3f (antibody, V domains shown, IgG1.3f heavy constant, common CL; expression supernatant; also called Sup 1) VH: QVQLVQSGAEVKKPGASVKVSCKASGYAFTNYLIEWVRQAPGQGLEWMGVINPGSGGTNYNEKFKGRVTMTRDTSISTAYMELSRLRSDDTAVYYCARSQLGRRFDYWGQGTLVTVSS VL: DIQMTQSPSSLSASVGDRVTITCKASQDVRTGVAWYQQKPGKAPKLLIYSASYRNTGVPSRFSGSGSGTDFTFTISSLQPEDIATYYCQQHYSPPYTFGGGTKVEIK	48000
humanized Y1238 hz32 (hz-HC7 / hz-LC2), IgG1.3f (antibody, V domains shown, IgG1.3f heavy constant, common CL; expression supernatant; also called Sup 32) VH: QVQLVQSGAEVVKPGASVKVSCKASGYAFTNYLIEWVRQRPGQGLEWMGVINPGSGGTNYNEKFKGRVTMTADKSSSTAYMQLSRLRSDDTAVYFCARSQLGRRFDYWGQGTLVTVSS VL: DIQMTQSPSSLSASVGDRVTITCKASQDVRTGVAWYQQKPGKAPKLLIYSASYRNTGVPSRFSGSRSGTDFTFTISSLQPEDIATYYCQQHYSPPYTFGGGTKVEIK	37000
humanized Y1238 hz50 (hz-HC10 / hz-LC5), IgG1.3f (antibody, V domains shown, IgG1.3f heavy constant, common CL; expression supernatant; also called Sup 50) VH: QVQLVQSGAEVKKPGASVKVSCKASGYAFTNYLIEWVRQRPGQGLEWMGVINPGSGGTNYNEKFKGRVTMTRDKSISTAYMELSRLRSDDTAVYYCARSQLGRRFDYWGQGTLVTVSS VL: DIQMTQSPSSLSASVGDRVTITCKASQDVRTGVAWYQQKPGQAPKLLIYSASYRNTGVPSRFSGSRSGTDFTFTISSLQPEDIAVYYCQQHYSPPYTFGGGTKVEIK	39000
